TARGET OF ASSAY: T1, XIAP-BIR2 (human, UniProt P98170 124-240)
T1 construct: range 124-240; The text says C213G, the vector name reads pET15b-XIAPBIR2C202AC218G; Expressed in E. coli from pET15b
T1 sequence (P98170 124-240 C202A/C213G limits assumed): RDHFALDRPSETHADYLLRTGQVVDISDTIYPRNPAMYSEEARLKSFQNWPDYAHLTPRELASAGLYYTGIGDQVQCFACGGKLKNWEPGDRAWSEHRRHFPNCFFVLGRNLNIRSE
METHOD SUMMARY: fluorescence polarization competition, SMAC-FAM probe
PARAMETER MEASURED: pKi
Give bare numbers, as −log10 of the molar value.

// solved cases for pKi follow
> print(dat)
      binder  reported.measurement
1  AVPWGLKSE                  5.16
2  AEAVPWKSE                  5.44
3  AEAVAWKSE                  5.60
4  ATAVIEKSE                  5.24

Consider now this further binder.
# binder "AIPFEEKSE" ; its pKi = 5.06
